# experiment-summary: clinical
# condition-context: human, in vivo, po, 500 mg, tmax
property-label: Tmax

Q: Give the measured Tmax of C#CC[C@@H](C(=O)N[C@H](/C=C/C(=O)OCC)C[C@@H]1CCNC1=O)n1cccc(NC(=O)c2cc(C)on2)c1=O [V-7404] .
Result: 28.8 min

----------
# experiment-summary: clinical
# condition-context: human, in vivo, po, 500 mg, tmax
property-label: Tmax at 14 days (min)
Please give a number only; it is taken to be in min.

Q: Give the measured Tmax at 14 days of `C#CC[C@@H](C(=O)N[C@H](/C=C/C(=O)OCC)C[C@@H]1CCNC1=O)n1cccc(NC(=O)c2cc(C)on2)c1=O` .
Result: 15
